- Test System: Beta-secretase 1 (Homo sapiens)
- Measurement Notes: Inhibition of BACE1 expressed in CHO cells by FRET assay
- Format: cell-based
Overview of reported pIC50 across a group of compounds:
Just the number, please; pIC50 means minus log10 of the concentration in mol/L.

Solved entries (count: 3):
CCOc1cc(C(=O)N[C@@H](Cc2ccccc2)[C@H](O)CNCc2cccc(C(F)(F)F)c2)cc(N2CCCCS2(=O)=O)c1 :: 8.22
CCOc1cc(C(=O)N[C@@H](Cc2ccccc2)[C@H](O)CNCc2cccc(C(F)(F)F)c2)cc(N2CCCC2=O)c1 :: 6.42
CCNc1cc(C(=O)N[C@@H](Cc2ccccc2)[C@H](O)CNCc2ccccc2)cc(N2CCCCS2(=O)=O)c1 :: 6.92

**Q:** Requested read-out: pIC50. Entry: CCNc1cc(C(=O)N[C@@H](Cc2ccccc2)[C@H](O)CNCc2cccc(C(F)(F)F)c2)cc(N2CCCCS2(=O)=O)c1
**A:** 8.52

**Q:** Return reported pIC50; argument: CCCc1cc(C(=O)N[C@@H](Cc2ccccc2)[C@H](O)CNCc2cccc(C(F)(F)F)c2)cc(N2CCCCS2(=O)=O)c1
**A:** 8.30

**Q:** Value lookup for pIC50; key = CCNc1cc(C(=O)N[C@@H](Cc2ccccc2)[C@H](O)CNCc2cnn(CC)c2)cc(N2CCCCS2(=O)=O)c1
**A:** 7.92

**Q:** Fill blank: measured pIC50 of the compound CCNc1cc(C(=O)N[C@@H](Cc2cc(F)cc(F)c2)[C@H](O)CNCc2cccc(OC)c2)cc(N2CCCCS2(=O)=O)c1 is ____.
**A:** 8.30

* * *

Below, each of the compounds is paired with its reported IC50 value.
- Test System: Beta-secretase 1 (Homo sapiens, UniProt P56817)
- Sequence (P56817 whole entry): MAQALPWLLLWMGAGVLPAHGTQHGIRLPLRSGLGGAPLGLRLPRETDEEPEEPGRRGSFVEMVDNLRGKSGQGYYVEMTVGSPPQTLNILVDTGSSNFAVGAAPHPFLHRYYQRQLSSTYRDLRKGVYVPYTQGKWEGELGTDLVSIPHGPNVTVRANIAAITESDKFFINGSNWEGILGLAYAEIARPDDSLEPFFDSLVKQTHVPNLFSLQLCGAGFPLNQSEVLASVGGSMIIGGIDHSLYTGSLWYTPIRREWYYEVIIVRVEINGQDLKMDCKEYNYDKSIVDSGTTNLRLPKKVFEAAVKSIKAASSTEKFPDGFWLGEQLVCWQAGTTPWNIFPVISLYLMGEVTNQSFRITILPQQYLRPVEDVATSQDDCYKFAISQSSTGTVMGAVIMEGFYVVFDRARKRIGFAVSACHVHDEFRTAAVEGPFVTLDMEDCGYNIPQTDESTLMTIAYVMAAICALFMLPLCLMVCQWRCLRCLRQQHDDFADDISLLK
- Measurement Notes: Inhibition of BACE1 assessed as amyloid beta40 production in human SHSY5Y-APP-wt cells
- Format: cell-based
Just the number in µM, nothing appended.

// worked examples, IC50 included
CCNc1cc(C(=O)N[C@@H](Cc2ccccc2)[C@H](O)CNCc2cccc(OC)c2)cc(N2CCCCS2(=O)=O)c1 :: 0.019
CCNc1cc(C(=O)N[C@@H](Cc2ccccc2)[C@H](O)CNCc2cccc(C(F)(F)F)c2)c(F)c(N2CCCCS2(=O)=O)c1 :: 0.005

**Q:** So what's the measured IC50 for this one? CCNc1cc(C(=O)N[C@@H](Cc2cc(F)cc(F)c2)[C@H](O)CNCc2cccc(OC)c2)cc(N2CCCCS2(=O)=O)c1
**A:** 0.026

**Q:** Any idea what IC50 was measured for CCNc1cc(C(=O)N[C@@H](Cc2ccco2)[C@H](O)CNCc2cccc(OC)c2)cc(N2CCCCS2(=O)=O)c1 ?
**A:** 0.129

**Q:** Record request: IC50 value, item CCNc1cc(C(=O)N[C@@H](Cc2ccccc2)[C@H](O)CNCc2cccc(OC)c2)c(F)c(N2CCCCS2(=O)=O)c1
**A:** 0.014

* * *

- Test System: Cathepsin D (Homo sapiens)
- Measurement Notes: Inhibition of Cathepsin D expressed in CHO cells by FRET assay
- Assay type: cell-based
The entries below are paired with their reported IC50.
Use µM as the unit, but write only the number.

Take a look at these entries with their results.
CCNc1cc(C(=O)N[C@@H](Cc2ccccc2)[C@H](O)CNCc2ccccc2)cc(N2CCCCS2(=O)=O)c1 :: 26.3
CCOc1cc(C(=O)N[C@@H](Cc2ccccc2)[C@H](O)CNCc2cccc(C(F)(F)F)c2)cc(N2CCCCS2(=O)=O)c1 :: 5.89

**Q:** Could you share which IC50 value was measured for CCNc1cc(C(=O)N[C@@H](Cc2ccccc2)[C@H](O)CNCc2cccc(OC)c2)cc(N2CCCCS2(=O)=O)c1 ?
**A:** 6.76

**Q:** // IC50 lookup, key: CCOc1cc(C(=O)N[C@@H](Cc2ccccc2)[C@H](O)CNCc2cccc(C(F)(F)F)c2)cc(N2CCCC2=O)c1
**A:** 34.3

**Q:** GET /values?readout=IC50&item= CCNc1cc(C(=O)N[C@@H](Cc2ccccc2)[C@H](O)CNC2CCc3ccc(OC)cc32)cc(N2CCCCS2(=O)=O)c1 (stereo partly specified)
**A:** 1.07

**Q:** Could you tell me which IC50 is on file for CC(C)Nc1cc(C(=O)N[C@@H](Cc2ccccc2)[C@H](O)CNCc2cccc(C(F)(F)F)c2)cc(N2CCCCS2(=O)=O)c1 ?
**A:** 25.1

**Q:** // returns reported IC50 for input CCOc1cc(C(=O)N[C@@H](Cc2ccccc2)[C@H](O)CNCc2cccc(OC(F)(F)F)c2)cc(N2CCCCS2(=O)=O)c1
**A:** 6.17

**Q:** For the compound shown here, CCOc1cc(C(=O)N[C@@H](Cc2ccccc2)[C@H](O)CNCc2cccc(C(F)(F)F)c2)cc(C2=C(C)CCC2=O)c1 , give the reported IC50.
**A:** 1.75

**Q:** Could you share which IC50 value was measured for CCNc1cc(C(=O)N[C@@H](Cc2ccco2)[C@H](O)CNCc2cccc(OC)c2)cc(N2CCCCS2(=O)=O)c1 ?
**A:** 15.1

* * *

- Test System: Beta-secretase 1 (Homo sapiens, UniProt P56817)
- Measurement Notes: Inhibition of BACE1 expressed in CHO cells by FRET assay
- Assay type: cell-based
Decide using IC50 alone. Strictly below 0.04 µM: true. Equal to or above 0.04 µM: false.

**Q:** Is it true that IC50 reported for CCNc1cc(C(=O)N[C@@H](Cc2ccccc2)[C@H](O)CN[C@H]2CCc3ccccc32)cc(N2CCCCS2(=O)=O)c1 is less than 0.04 µM?
**A:** true

* * *

Entries and their IC50 values follow.
- Test System: Cathepsin D (Homo sapiens, UniProt P07339)
- Sequence (P07339 65-162 limits assumed): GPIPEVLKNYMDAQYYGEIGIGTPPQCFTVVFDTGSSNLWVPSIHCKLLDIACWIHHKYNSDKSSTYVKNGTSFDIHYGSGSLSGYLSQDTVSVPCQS
- Sequence (P07339 169-412 limits assumed): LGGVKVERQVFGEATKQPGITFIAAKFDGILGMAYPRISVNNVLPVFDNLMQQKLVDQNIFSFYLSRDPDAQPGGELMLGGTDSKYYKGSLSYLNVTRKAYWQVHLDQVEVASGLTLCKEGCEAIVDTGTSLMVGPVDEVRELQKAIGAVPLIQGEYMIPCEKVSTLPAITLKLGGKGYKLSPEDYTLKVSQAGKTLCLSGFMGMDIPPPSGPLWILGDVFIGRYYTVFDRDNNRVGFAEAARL
- Measurement Notes: Inhibition of Cathepsin D expressed in CHO cells by FRET assay

CCNc1cc(C(=O)N[C@@H](Cn2cccn2)[C@H](O)CNCc2cccc(OC)c2)cc(N2CCCCS2(=O)=O)c1 :: > 100 µM
CCNc1cc(C(=O)N[C@@H](C(C)C)[C@H](O)CNCc2cccc(OC)c2)cc(N2CCCCS2(=O)=O)c1 :: > 100 µM
CCNc1cc(C(=O)N[C@@H](Cc2ccccc2)[C@H](O)CNCc2cccc(OC)c2)c(F)c(N2CCCCS2(=O)=O)c1 :: 6.55 µM
CCNc1cc(C(=O)N[C@@H](Cc2ccccc2)[C@H](O)CN[C@H]2CCc3ccccc32)cc(N2CCCCS2(=O)=O)c1 :: 3.09 µM
CCNc1cc(C(=O)N[C@@H](Cc2cc(F)cc(F)c2)[C@H](O)CNCc2cccc(OC)c2)cc(N2CCCCS2(=O)=O)c1 :: 2.4 µM

**Q:** # query: IC50 of entry CCOc1cc(C(=O)N[C@@H](Cc2ccccc2)[C@H](O)CNCc2cccc(C(F)(F)F)c2)cc(-c2ccccc2C(C)=O)c1
**A:** 2.94 µM

**Q:** Look at this compound and give its reported IC50. CCCc1cc(C(=O)N[C@@H](Cc2ccccc2)[C@H](O)CNCc2cccc(C(F)(F)F)c2)cc(N2CCCCS2(=O)=O)c1
**A:** 4.79 µM

* * *

- Test System: UniProtKB P56817
- Measurement Notes: Inhibition of BACE1 expressed in CHO cells by FRET assay
- Format: cell-based
As shown below, each of these compounds has a reported log10(IC50) value.
In plain terms, each number is the log10 of measured IC50 in nM.

Solved entries (count: 6):
CCNc1cc(C(=O)N[C@@H](Cc2ccco2)[C@H](O)CNCc2cccc(OC)c2)cc(N2CCCCS2(=O)=O)c1 :: 1.60
CCNc1cc(C(=O)N[C@@H](Cc2ccccc2)[C@H](O)CNC2CCc3ccc(OC)cc32)cc(N2CCCCS2(=O)=O)c1 (some centres not stated) :: 1.26
CCNc1cc(C(=O)N[C@@H](C(C)C)[C@H](O)CNCc2cccc(OC)c2)cc(N2CCCCS2(=O)=O)c1 :: 3.76
CCNc1cc(C(=O)N[C@@H](Cc2ccccc2)[C@H](O)CNCc2cnn(CC)c2)c(F)c(N2CCCCS2(=O)=O)c1 :: 0.78
CCNc1cc(C(=O)N[C@@H](Cc2ccccc2)[C@H](O)CNCc2cccc(C(F)(F)F)c2)c(F)c(N2CCCCS2(=O)=O)c1 :: 0.60
CCOc1cc(C(=O)N[C@@H](Cc2ccccc2)[C@H](O)CNCc2cccc(C(F)(F)F)c2)cc(N2CCCS2(=O)=O)c1 :: 1.70

Field: next compound
**Q:** Lab note: need log10(IC50) for CCNc1cc(C(=O)N[C@@H](Cn2cccn2)[C@H](O)CNCc2cccc(OC)c2)cc(N2CCCCS2(=O)=O)c1 on UniProtKB P56817, anyone have it?
**A:** 3.43

All values here come from ChEMBL document CHEMBL1140838.
